Values were extracted from patent US9765087B2.

# Tested on: HCV 1a genotype replicon
# protocol description: HCV replicon assay (qRT-PCR or luciferase), genotype 1a
# Format: cell-based
# recorded conditions: Hepatitis C virus, Table 12, range class, read-out: 1a EC50 Range
measured property: EC50

COC(=O)N[C@H](C(=O)N1CCC[C@H]1c1ncc(-c2ccc(C#Cc3ccc4nc([C@@H]5C[C@@H](C6CC6)CN5C(=O)[C@@H](NC(=O)OC)C(C)C)[nH]c4c3)cc2)[nH]1)C(C)C
< 1 nM

Exam item: Would you mind telling me what EC50 value was observed for "COC(=O)N[C@@H](C(=O)N1CC2(CC2)C[C@H]1c1ncc(-c2ccc(C#Cc3ccc4nc([C@@H]5CC6(CC6)CN5C(=O)[C@H](NC(=O)OC)c5cccs5)[nH]c4c3)cc2)[nH]1)c1cccs1" ?
Marked response: > 10 nM

----------
# Tested on: HCV 1b genotype replicon
# protocol description: HCV replicon assay (qRT-PCR or luciferase), genotype 1b
# Type: cell-based
# recorded conditions: Hepatitis C virus, Table 12, numeric values, read-out: 1b EC50
measured property: EC50

Exam item: Param readout= EC50; system= HCV 1b genotype replicon; entry= COC(=O)N[C@H](C(=O)N1CCC[C@H]1c1ncc(-c2ccc(C#Cc3ccc4nc([C@@H]5C[C@@]6(CC=CCO6)CN5C(=O)[C@@H](NC(=O)OC)C(C)C)[nH]c4c3)cc2)[nH]1)C(C)C [Example 563] ; returns value.
Marked response: 0.012 nM

Exam item: Param readout= EC50; system= HCV 1b genotype replicon; entry= COC(=O)N[C@H](C(=O)N1CCC[C@H]1c1nc(-c2ccc3nc(-c4ccc5[nH]c([C@@H]6CC7(CC7)CN6C(=O)[C@@H](NC(=O)OC)C(C)C)nc5c4)ccc3c2)c[nH]1)C(C)C [Example 574] ; returns value.
Marked response: 0.036 nM

Exam item: Param readout= EC50; system= HCV 1b genotype replicon; entry= COC(=O)N[C@@H](C(=O)N1CC2(CC2)C[C@H]1c1ncc(-c2ccc(C#Cc3ccc4nc([C@@H]5CC6(CC6)CN5C(=O)[C@H](NC(=O)OC)c5ccccc5)[nH]c4c3)cc2)[nH]1)c1ccccc1 [Example 645] ; returns value.
Marked response: 0.005 nM

----------
# Test system: HCV 1b genotype replicon
# protocol description: HCV replicon assay (qRT-PCR or luciferase), genotype 1b
# Format: cell-based
# recorded conditions: Hepatitis C virus, Table 12, numeric values, read-out: 1b EC50
# From the text: HCV replicon cell lines (kindly provided by R. Bartenschlager) isolated from colonies as described by Lohman et. al. (Lohman et al. (1999) Science 285: 110-113, expressly incorporated by reference in its entirety) and used for all experiments. The HCV replicon has the nucleic acid sequence set forth in EMBL Accession No.: AJ242651, the coding sequence of which is from nucleotides 1801 to 8406. […]
EC50 values, listed per item

Worked examples, 2 molecules total:
COC(=O)N[C@H](C(=O)N1CCC[C@H]1c1ncc(-c2ccc(C#Cc3ccc4nc([C@@H]5CC6(CC6)CN5C(=O)[C@H](NC(=O)OC)c5ccccc5)[nH]c4c3)cc2)[nH]1)C(C)C
5 pM
COC(=O)N[C@H](C(=O)N1C[C@@H](O)C[C@H]1c1nc(-c2ccc(C#Cc3ccc4[nH]c([C@@H]5C[C@@]6(CCCO6)CN5C(=O)[C@@H](NC(=O)OC)C(C)C)nc4c3)cc2)c[nH]1)C(C)C
24 pM

Okay, now this molecule:
Exam item: Would you mind telling me what EC50 value was observed for "COC(=O)N[C@H](C(=O)N1CC2(CC2)C[C@H]1c1nc2cc(C#Cc3ccc(-c4cn(O)c([C@@H]5CC6(CC6)CN5C(=O)[C@@H](NC(=O)OC)C(C)C)n4)cc3)ccc2[nH]1)C(C)C" ?
Marked response: 13 pM
